These measurements were taken from patent US20260015403A1.

- Measurement Target: T1, BCMA on BCMA-positive multiple myeloma tumor lines RPMI-8226 and MM1.S (human, UniProt Q02223 1-184)
- T1 sequence (looked up): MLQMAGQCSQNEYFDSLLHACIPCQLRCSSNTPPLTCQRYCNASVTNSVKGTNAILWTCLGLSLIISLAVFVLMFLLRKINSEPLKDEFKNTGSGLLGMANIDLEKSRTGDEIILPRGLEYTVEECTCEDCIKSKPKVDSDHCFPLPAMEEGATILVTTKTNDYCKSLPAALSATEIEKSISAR
- Procedure Summary: cell-based or functional assay
Property Name: tumor lysis of RPMI-8226-luc, luciferase-based killing assay, E:T 5

Would you kindly share the measured tumor lysis of RPMI-8226-luc, luciferase-based killing assay, E:T 5 for BCMA CAR construct with ScFv sequence 14 (MTB-14) (other, not shown: large carriers) EVQLVESGGGVVQPGRSLRLSCAASGFTFSSYGMHWVRQAPGKGLEWVAFIRYDGSNKYYADSVKGRFTISRDNSKNTLYLQMNSLRAEDTAVYYCVSDDYGGNSGTSYWGQGTLVTVSSGGGGSGGGGSGGGGSDIQMTQSPSSLSASVGDRVTITCQASQDISNYLNWYQQKPGKAPKLLIYDASNLETGVPSRFSGSGSGTDFTLTISSLQPEDFATYYCQQSYSTPVTFGGGTKLTVLG ? > 40%

Repeat for the following binder: BCMA CAR construct with ScFv sequence 50 (MTB-50) (other, not shown: large carriers) EVQLVQSGGGVVRPGGSLRLSCAASGFTFSTYEMNWVRQAPGKGLEWLAYIGGSGSPIYYADSVRGRFTISRDNTKNSLFLQMSSLRAEDTAVYYCVEGWFDKWGLGTLVTVSSGGGGSGGGGSGGGGSDIQLTQSPSTLSASVGDRVTITCRASQSISSYLNWYQQKPGKAPKLLIYDASNLETGVPSRFSGSGSGTDFTLTISSLQPEDFATYYCQQSYSTPYTFGQGTKLEIKR > 40%

Would you kindly repeat that for BCMA CAR construct with ScFv sequence 28 (MTB-28) (other, not shown: large carriers) QVQLVESGGGVVQPGGSLRLSCAASGFTFSSYGMHWVRQAPGKGLEWVAFIRYDGSNKYYADSVKGRFTISRDNSKNTLYLQMNSLRAEDTAVYYCARDSYSSSGDPRAFDPWGQGTLVTVSSGGGGSGGGGSGGGGSNFMLTQPHSVSESPGKTVTISCTGSSGSIASNYVQWYQQRPGSAPSTVIFEDNQRPSGVPGRFSGSVDRSSNSASLTISGLKTEDEADYYCQSYDSNNRGLFGGGTKVTVLG ? > 40%

Item: BCMA CAR construct with ScFv sequence 2 (MTB-2) (other, not shown: large carriers) EVQLVQSGGGLVQPGGSLRLSCAASGFTFSSYWMSWVRQAPGKGLEWVSGINGSGDRTYYADSVKGRFTISRDNSKNTLYLQMNSLRAEDTAVYYCANYNYDDNSGYGLGQGTLVTVSSGGGGSGGGGSGGGGSQSVLTQPPSVSVAPGKTARITCGGNNIGSKSVHWYQQKPGQAPVLVIYDDSDRPSGIPERFSGSNSGNTATLTISRVEAGDEADYYCQVWDSSSDHWVFGGGTKVTVLG ≤ 40%
